Data credit: ChEMBL document CHEMBL1944597

- ASSAYED TARGET: Tissue-type plasminogen activator (Homo sapiens)
- Sequence (P00750 whole entry): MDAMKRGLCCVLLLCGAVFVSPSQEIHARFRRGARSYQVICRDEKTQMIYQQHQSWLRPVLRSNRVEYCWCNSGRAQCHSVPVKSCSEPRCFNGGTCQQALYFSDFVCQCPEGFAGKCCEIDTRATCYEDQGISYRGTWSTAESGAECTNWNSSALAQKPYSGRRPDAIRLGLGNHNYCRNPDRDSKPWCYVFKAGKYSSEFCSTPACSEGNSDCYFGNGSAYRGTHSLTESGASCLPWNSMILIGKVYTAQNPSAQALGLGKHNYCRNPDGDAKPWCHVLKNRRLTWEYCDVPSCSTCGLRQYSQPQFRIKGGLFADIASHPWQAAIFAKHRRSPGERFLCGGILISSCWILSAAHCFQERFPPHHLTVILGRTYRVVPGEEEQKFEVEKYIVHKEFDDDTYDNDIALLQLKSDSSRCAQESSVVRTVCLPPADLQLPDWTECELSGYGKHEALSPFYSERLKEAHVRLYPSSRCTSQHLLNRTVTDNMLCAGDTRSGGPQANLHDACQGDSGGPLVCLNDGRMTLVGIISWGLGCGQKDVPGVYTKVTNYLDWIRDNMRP
- MEASUREMENT PROTOCOL: Inhibition of recombinant tPA using H-D-Ile-Pro-Arg-pNA.2HCl as substrate preincubated for 15 mins prior substrate addition measured for 10 mins by spectrophotometry
pKi: −log10 of the molar value.
OBSERVATION TYPE: pKi

>>> value_measured("CCOC(=O)N1CCN(C(=O)[C@H](Cc2cccc(C(=N)N)c2)NS(=O)(=O)c2c(C(C)C)cc(C(C)C)cc2C(C)C)CC1")
5.31
>>> value_measured("C[C@H](NC(=O)[C@@H](CO)NS(=O)(=O)Cc1ccccc1)C(=O)NCc1ccc(C(=N)N)cc1")
5.13

====

- ASSAYED TARGET: Tissue-type plasminogen activator (Homo sapiens)
- MEASUREMENT PROTOCOL: Inhibition of recombinant tPA using H-D-Ile-Pro-Arg-pNA.2HCl as substrate preincubated for 15 mins prior substrate addition measured for 10 mins by spectrophotometry
OBSERVATION TYPE: IC50 (µM)

>>> value_measured("COc1ccc2cc(C(=O)Nc3ccc(-c4cccc([N+](=O)[O-])c4)cc3)ccc2c1")
8.6

[a] COc1cccc(-c2ccc(NC(=O)c3ccc4cc(C(N)=O)ccc4c3)cc2)c1
[b] N=C(N)c1ccc2cc(C(=O)Nc3ccccc3)ccc2c1
Could you determine which record has the numerically smaller IC50? Candidates: a and b Please respond with the label that marks your chosen entry.
a

====

- ASSAYED TARGET: Prothrombin (Homo sapiens)
- MEASUREMENT PROTOCOL: Inhibition of human plasma thrombin using pyroGlu-Pro-Arg-p-NA.HCl as substrate preincubated for 15 mins prior substrate addition measured for 10 mins by spectrophotometry
OBSERVATION TYPE: pKi
The value called pKi is obtained by taking minus log10 of the concentration in mol/L.

Fill in: pKi on Prothrombin (Homo sapiens), entry C[C@H](NC(=O)[C@@H](CO)NS(=O)(=O)Cc1ccccc1)C(=O)NCc1ccc(C(=N)N)cc1
7.00

====

- ASSAYED TARGET: Plasminogen (Homo sapiens)
- Sequence (P00747 97-580 limits assumed): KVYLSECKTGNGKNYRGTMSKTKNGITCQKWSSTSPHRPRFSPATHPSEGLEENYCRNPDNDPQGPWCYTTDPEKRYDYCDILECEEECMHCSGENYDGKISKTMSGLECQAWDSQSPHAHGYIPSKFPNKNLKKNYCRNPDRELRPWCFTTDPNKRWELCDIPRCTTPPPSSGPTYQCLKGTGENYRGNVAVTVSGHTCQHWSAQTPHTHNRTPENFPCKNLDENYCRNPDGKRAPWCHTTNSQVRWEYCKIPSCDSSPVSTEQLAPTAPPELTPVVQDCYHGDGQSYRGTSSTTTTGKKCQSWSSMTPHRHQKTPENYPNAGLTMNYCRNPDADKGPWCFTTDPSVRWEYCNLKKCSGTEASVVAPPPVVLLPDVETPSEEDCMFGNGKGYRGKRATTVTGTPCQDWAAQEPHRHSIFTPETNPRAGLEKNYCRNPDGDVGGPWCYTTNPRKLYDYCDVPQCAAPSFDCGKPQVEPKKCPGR
- Sequence (P00747 581-810 limits assumed): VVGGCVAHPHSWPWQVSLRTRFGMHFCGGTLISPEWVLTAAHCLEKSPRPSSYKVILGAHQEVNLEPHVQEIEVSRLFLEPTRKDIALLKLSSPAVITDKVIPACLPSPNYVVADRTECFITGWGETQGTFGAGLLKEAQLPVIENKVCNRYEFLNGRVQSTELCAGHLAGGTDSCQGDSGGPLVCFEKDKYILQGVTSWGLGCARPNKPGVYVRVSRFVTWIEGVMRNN
- MEASUREMENT PROTOCOL: Inhibition of human plasma plasmin using pyroGlu-Pro-Arg-p-NA.HCl as substrate preincubated for 15 mins prior substrate addition measured for 10 mins by spectrophotometry
OBSERVATION TYPE: IC50 (µM)

>>> value_measured("N=C(N)c1ccc2cc(C(=O)Nc3ccccc3)ccc2c1")
22
>>> value_measured("NC(=O)c1ccc2cc(C(=O)Nc3ccc(-c4cccc(C(F)(F)F)c4)cc3)ccc2c1")
6.3
>>> value_measured("COc1cc(NC(=O)c2ccc3cc(C(=N)N)ccc3c2)cc(OC)c1")
13

[I] COc1cccc(-c2ccc(NC(=O)c3ccc4cc(C(N)=O)ccc4c3)cc2)c1
[II] COc1ccc2cc(C(=O)Nc3ccc(-c4cccc([N+](=O)[O-])c4)cc3)ccc2c1
[III] COc1cccc(-c2ccc(NC(=O)c3ccc4cc(OC)ccc4c3)cc2)c1
[IV] COC(=O)c1cccc(-c2ccc(NC(=O)c3ccc4cc(OC)ccc4c3)cc2)c1
[V] COc1ccc2cc(C(=O)Nc3ccc(-c4cccc(C(F)(F)F)c4)cc3)ccc2c1
Please list these compounds in decreasing order of IC50. // ordering of labels required in reply
II, III, I, V, IV

====

- ASSAYED TARGET: Tissue-type plasminogen activator (Homo sapiens)
- MEASUREMENT PROTOCOL: Inhibition of recombinant tPA using H-D-Ile-Pro-Arg-pNA.2HCl as substrate preincubated for 15 mins prior substrate addition measured for 10 mins by spectrophotometry
OBSERVATION TYPE: IC50 (µM)

>>> value_measured("NC(=O)c1ccc2cc(C(=O)Nc3ccc(-c4cccc(C(F)(F)F)c4)cc3)ccc2c1")
3.4
>>> value_measured("COC(=O)c1cccc(-c2ccc(NC(=O)c3ccc4cc(C(N)=O)ccc4c3)cc2)c1")
11
>>> value_measured("COC(=O)c1cccc(-c2ccc(NC(=O)c3ccc4cc(OC)ccc4c3)cc2)c1")
8.4
>>> value_measured("COc1ccc2cc(S(=O)(=O)Nc3ccc(-c4cccc(C(F)(F)F)c4)cc3)ccc2c1")
13
>>> value_measured("COC(=O)c1cccc(-c2ccc(NS(=O)(=O)c3ccc4cc(OC)ccc4c3)cc2)c1")
26

[P] COc1ccc(-c2ccc(NC(=O)c3ccc4cc(C(N)=O)ccc4c3)cc2OC)cc1
[Q] COc1cccc(-c2ccc(NC(=O)c3ccc4cc(OC)ccc4c3)cc2)c1
API: POST /compare with P and Q ; response names the item with higher IC50. Please respond with the label that marks your chosen entry.
Q
(Q: 21 µM, P: 9.7 µM)
